B1: Pituitary-specific positive transcription factor 1, residues 130 to 198; numbered along this chain, P28069 (parent)
chain: RELEKFANEFKVRRIKLGYTQTNVGEALAAVHGSEFSQTTICRFENLQLSFKNACKLKAILSKWLEEAE

variants of: B1; experiment: abundance fitness (aPCA) (normalised: wild type 0, dead -1); higher = more abundant; growth selection in yeast, the domain comes from the species named; details: Homo sapiens
Quantity measured: abundance fitness

| Variant spec | Numeric result |
| --- | --- |
| A30D | -0.457 |
| V31E | -0.013 |
| V24K | -0.846 |
| Q48F | -0.889 |
| N8E | -0.168 |
| K58M | -0.151 |
| E69A | -0.436 |
| R43D | 0.112 |
| E9Q | -0.188 |
| E4Q | -0.245 |
| F6Y | -0.837 |
| L47N | 0.187 |
| Q21E | -0.549 |
| E26A | -0.332 |
| F51S | -0.189 |
| R1M | -0.712 |
| N53L | -0.001 |
| E67F | -0.49 |
| K5N | -0.079 |
| L61Q | -0.78 |
| A27S | -0.106 |
| F10M | -0.621 |
